Molecular target: human NHE-3 (Homo sapiens, UniProt P48764)
Construct: expressed in transfected cells; host or cells: Opossum kidney (OK) cells (ATCC), transfected by electroporation
Sequence (P48764 26-834): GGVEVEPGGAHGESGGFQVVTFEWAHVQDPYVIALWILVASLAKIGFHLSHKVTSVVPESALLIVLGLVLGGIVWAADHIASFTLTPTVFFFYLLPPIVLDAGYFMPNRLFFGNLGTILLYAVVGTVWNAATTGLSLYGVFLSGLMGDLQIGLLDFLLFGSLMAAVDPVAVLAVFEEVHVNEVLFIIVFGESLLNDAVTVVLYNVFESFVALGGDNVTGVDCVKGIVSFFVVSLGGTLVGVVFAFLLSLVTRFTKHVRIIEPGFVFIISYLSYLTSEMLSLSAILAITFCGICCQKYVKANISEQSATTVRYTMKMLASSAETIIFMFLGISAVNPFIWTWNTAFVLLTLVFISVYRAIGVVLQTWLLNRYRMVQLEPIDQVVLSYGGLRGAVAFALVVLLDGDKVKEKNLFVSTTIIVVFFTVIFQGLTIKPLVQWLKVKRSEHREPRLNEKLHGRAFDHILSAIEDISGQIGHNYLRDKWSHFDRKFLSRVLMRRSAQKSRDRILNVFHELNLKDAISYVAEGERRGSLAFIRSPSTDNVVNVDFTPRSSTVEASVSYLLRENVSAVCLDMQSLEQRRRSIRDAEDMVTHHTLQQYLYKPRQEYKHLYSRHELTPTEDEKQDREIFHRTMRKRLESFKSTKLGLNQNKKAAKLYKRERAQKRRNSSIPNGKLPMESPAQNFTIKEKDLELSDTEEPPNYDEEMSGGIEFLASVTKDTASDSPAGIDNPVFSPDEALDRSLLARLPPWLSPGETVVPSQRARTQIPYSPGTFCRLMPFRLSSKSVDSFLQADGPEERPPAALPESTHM
Assay: Cell-based assay of NHE-3 activity (human NHE3 inhibition assay)
Details: OK cells with human NHE-3 gene, BCECF pH dye, 0-30 μM test compound; read-out: Human NHE3 pIC50 (converted)
Listed below: IC50 values for each entry.

cpd smiles	IC50
CN1Cc2c(Cl)cc(Cl)cc2[C@H](c2cccc(S(=O)(=O)NCCOCCOCCNC(=O)CCC(CCC(=O)NCCOCCOCCNS(=O)(=O)c3cccc([C@@H]4CN(C)Cc5c(Cl)cc(Cl)cc54)c3)(CCC(=O)NCCOCCOCCNS(=O)(=O)c3cccc([C@@H]4CN(C)Cc5c(Cl)cc(Cl)cc54)c3)NC(=O)NCCS(=O)(=O)O)c2)C1	< 0.1 µM

Per the records, this molecule ( CC(=O)C(CCC(=O)NCCOCCOCCNS(=O)(=O)c1cccc([C@@H]2CN(C)Cc3c(Cl)cc(Cl)cc32)c1)(CCC(=O)NCCOCCOCCNS(=O)(=O)c1cccc([C@@H]2CN(C)Cc3c(Cl)cc(Cl)cc32)c1)CCC(=O)NCCOCCOCCNS(=O)(=O)c1cccc([C@@H]2CN(C)Cc3c(Cl)cc(Cl)cc32)c1 ) has IC50 equal to 0.1 to 10 µM
